Data provenance: patent US11760722B2

# Tested on: human coronavirus (HCoV) 229E
# assay_name: microbe, parasite or virus in culture
# Assay type: cell-based, human coronavirus 229E
# assay_conditions: unidentified human coronavirus, 72 h, MRCS cells, HCoV 229E, 3 days, CellTiter Glo; read-out: 229E CPE EC50
readout_type: pEC50
pEC50 (log units): -log10 of the concentration in mol/L.

# example entries with known answers
[[record]]
entry_smiles = "CC(C)(C)[C@H](NS(=O)(=O)c1ccns1)C(=O)N1C[C@H]2[C@@H]([C@H]1C(=O)N[C@H](C#N)C[C@@H]1CCNC1=O)C2(C)C"
reported_result = 6.83

[[record]]
entry_smiles = "CN(C)S(=O)(=O)N[C@H](C(=O)N1C[C@H]2[C@@H]([C@H]1C(=O)N[C@H](C#N)C[C@@H]1CCNC1=O)C2(C)C)C(C)(C)C"
reported_result = 5.21


Asked: Quick one: pEC50 for `CN(C)C(=S)N[C@H](C(=O)N1C[C@H]2[C@@H]([C@H]1C(=O)N[C@H](C#N)C[C@@H]1CCNC1=O)C2(C)C)C(C)(C)C` ?
Given back: 4.67
